- System: ducksalad (Heteranthera limosa)
- test protocol: Test C flooded paddy test plant response
- Type: in vivo
- measurement parameters: Heteranthera limosa; Flood, 250 g ai/ha; scale of 0 to 100 where 0 is no effect and 100 is complete control; 13 to 15 days; read-out: Ducksalad plant response rating
recorded endpoint: pest or weed control at 250 g/ha (%)
Give a bare numeral; the unit % is implied.

Reference set, count: 4
INSERT INTO assay_data (molecular_string, data_value) VALUES
  ('FC(F)(F)c1ccnc(-c2ccccc2Oc2ncc(Cl)cn2)c1', 30),
  ('Clc1cnc(Oc2ccccc2-c2cc(Br)no2)nc1', 40),
  ('FC(F)(F)Oc1ccc(-c2ccccc2Oc2ncc(Cl)cn2)cc1', 0),
  ('FC(F)c1cc(-c2ccccc2Oc2ncc(Cl)cn2)no1', 100);

Now let's try a different one.
Write down the reported pest or weed control at 250 g/ha (system: ducksalad (Heteranthera limosa)) of "Cc1ccc(Oc2ncc(Cl)cn2)c(-c2ccnc(C(F)(F)F)c2)c1"
0

###

- Tested on: field poppy (Papaver rhoeas)
- test protocol: Test E pre-/postemergence plant response
- Type: in vivo
- measurement parameters: pre-emergence, 125 g ai/ha, Preemergence, scale 0 to 100, read-out: Plant response rating, Field Poppy
recorded endpoint: pest or weed control at 125 g/ha

Please review the following examples before continuing.
INSERT INTO measurements (compound, recorded_endpoint, data_value) VALUES
  ('FC(F)c1cc(-c2ccccc2Oc2ncc(Cl)cn2)no1 [Compound 35]', 'pest or weed control at 125 g/ha', '90%'),
  ('FC(F)c1cc(-c2ccccc2Oc2ncc(Cl)cn2)on1 [Compound 53]', 'pest or weed control at 125 g/ha', '100%'),
  ('Fc1cccc(Oc2ncc(Cl)cn2)c1-c1cc(C(F)(F)F)on1 [Compound 168]', 'pest or weed control at 125 g/ha', '100%');

Name the value of pest or weed control at 125 g/ha reported for FC(F)(F)c1cc(-c2ccccc2Oc2ncc(Cl)cn2)no1 [Compound 200] when tested on field poppy (Papaver rhoeas).
95%

Provide field poppy (Papaver rhoeas) pest or weed control at 125 g/ha reading for Fc1cccc(Oc2ncc(Cl)cn2)c1-c1cc(C(F)F)no1 [Compound 144] .
100%

###

- System: blackgrass (Alopecurus myosuroides)
- test protocol: Test B postemergence plant response
- Assay type: in vivo
- measurement parameters: 125 g ai/ha, postemergence; 0 to 100 scale, 0 no effect, 100 complete control
recorded endpoint: Plant response rating, Blackgrass
Just the number, please, no unit after it.

// known answers, use as guide
INSERT INTO measurements (molecular_string, data_value) VALUES
  ('Cc1nnc(-c2ccccc2Oc2ncc(Cl)cn2)o1', 0),
  ('Fc1cc(F)c(-c2cc(C(F)F)no2)c(Oc2ncc(Cl)cn2)c1', 0),
  ('COc1cccc(Oc2ncc(Cl)cn2)c1-c1cc(C(F)(F)F)on1', 100),
  ('Brc1cnc(Oc2ccccc2-c2ccno2)nc1', 0);

Shifting focus to the molecule that follows.
# return recorded Plant response rating, Blackgrass for input "N#Cc1ccnc(-c2ccccc2Oc2ncc(Cl)cn2)c1"
20

###

- Tested on: ducksalad (Heteranthera limosa)
- test protocol: Test C flooded paddy test plant response
- Assay type: in vivo
- measurement parameters: Flood, 250 g ai/ha; scale of 0 to 100 where 0 is no effect and 100 is complete control; 13 to 15 days
Ducksalad plant response rating below 40 gives criterion not met; Ducksalad plant response rating at or above it gives criterion met.

INSERT INTO assay_data (molecular_string, study_system, classification) VALUES
  ('FCc1cc(-c2c(F)cccc2Oc2ncc(Cl)cn2)no1', 'ducksalad (Heteranthera limosa)', 'criterion met'),
  ('CCOC(=O)c1cc(-c2ccccc2Oc2ncc(Cl)cn2)on1', 'ducksalad (Heteranthera limosa)', 'criterion not met');

API: above_or_equal(metric=Ducksalad plant response rating, cutoff=40) for item "Clc1cnc(Oc2ccccc2-c2cc(Cl)sn2)nc1"
criterion met

Threshold query (Ducksalad plant response rating >= 40) on "Fc1ccc(Oc2ncc(Cl)cn2)c(-c2cc(C(F)F)on2)c1Cl"
criterion met

###

- Tested on: kochia (Kochia scoparia)
- test protocol: Test B pre-/postemergence plant response
- Format: in vivo
- measurement parameters: Postemergence, 1000 g ai/ha; 0 to 100 scale (0 no effect, 100 complete control)
Entries and their Plant response rating, Kochia
Lab note: write the figure by itself, no unit.

Completed entries (count: 6):
INSERT INTO measurements (molecule, recorded_endpoint, data_value) VALUES
  ('COC(=O)c1cc(-c2ccccc2Oc2ncc(Cl)cn2)no1 [Compound 235]', 'Plant response rating, Kochia', 0),
  ('Cc1cc(-c2ccccc2Oc2ncc(Cl)cn2)sn1 [Compound 171]', 'Plant response rating, Kochia', 100),
  ('Clc1cnc(Oc2ccccc2-c2ncns2)nc1 [Compound 172]', 'Plant response rating, Kochia', 30),
  ('Fc1cccc(Oc2ncc(Cl)cn2)c1-c1cc(C(F)F)on1 [Compound 55]', 'Plant response rating, Kochia', 100),
  ('Clc1cnc(Oc2ccccc2-c2ccc(Cl)nn2)nc1 [Compound 186]', 'Plant response rating, Kochia', 30),
  ('Fc1cnc(Oc2ccccc2-c2cc(Cl)sn2)nc1 [Compound 193]', 'Plant response rating, Kochia', 100);

Below: the item to evaluate.
State Plant response rating, Kochia on kochia (Kochia scoparia). Entry: Clc1cnc(Oc2ccccc2-c2cc(Cl)sn2)nc1 [Compound 192]
100

###

- System: blackgrass (Alopecurus myosuroides)
- test protocol: Test B postemergence plant response
- Type: in vivo
- measurement parameters: Postemergence, 500 g ai/ha; 0 to 100 scale (0 no effect, 100 complete control)
Assign Criterion met whenever Plant response rating, Blackgrass does not fall below 10; assign Criterion not met whenever it does.

INSERT INTO measurements (molecular_string, study_system, classification) VALUES
  ('CC(C)(C)c1cc(-c2ccccc2Oc2ncc(Cl)cn2)no1', 'blackgrass (Alopecurus myosuroides)', 'Criterion met'),
  ('FC(F)(F)c1cc(-c2c(Cl)cccc2Oc2ncc(Cl)cn2)no1', 'blackgrass (Alopecurus myosuroides)', 'Criterion met'),
  ('Cn1nnnc1-c1ccccc1Oc1ncc(Cl)cn1', 'blackgrass (Alopecurus myosuroides)', 'Criterion not met'),
  ('FC(F)c1cc(-c2ccccc2Oc2ncc(Cl)cn2)ncn1', 'blackgrass (Alopecurus myosuroides)', 'Criterion met'),
  ('Clc1cnc(Oc2ccccc2-c2ccon2)nc1', 'blackgrass (Alopecurus myosuroides)', 'Criterion met');

Kindly determine if Plant response rating, Blackgrass recorded for "FC(F)(F)c1csc(-c2ccccc2Oc2ncc(Cl)cn2)n1" is above or exactly 10.
Criterion not met

Answer whether Plant response rating, Blackgrass of "Clc1cnc(Oc2ccccc2-c2cc(Cl)ncn2)nc1" is greater than or equal to 10.
Criterion not met

Form field: Plant response rating, Blackgrass at least 10? Entry: "FC(F)c1cc(-c2c(Cl)cccc2Oc2ncc(Cl)cn2)no1"
Criterion met

Answer whether Plant response rating, Blackgrass of "Cc1cc(-c2ccccc2Oc2ncc(Cl)cn2)no1" is greater than or equal to 10.
Criterion met

Determine whether measured Plant response rating, Blackgrass meets or exceeds 10 for "Cn1cc(-c2ccccc2Oc2ncc(Cl)cn2)nn1"
Criterion met

Say whether "CC(C)n1ncnc1-c1ccccc1Oc1ncc(Cl)cn1" shows Plant response rating, Blackgrass of 10 or more.
Criterion not met

###

Recorded measurements of Corn plant response rating, one per entry
- Tested on: corn (Zea mays)
- test protocol: Test D pre-/postemergence plant response
- Format: in vivo
- measurement parameters: Postemergence, 16 g ai/ha; scale 0 to 100 (0 no effect, 100 complete control)
The reply should be a number, written without any unit.

INSERT INTO assay_data (molecular_string, data_value) VALUES
  ('FC(F)c1cc(-c2c(Cl)cccc2Oc2ncc(Cl)cn2)on1', 15),
  ('FC(F)Oc1cccc(Oc2ncc(Cl)cn2)c1-c1cc(C(F)F)on1', 5),
  ('FC(F)(F)c1cc(-c2ccccc2Oc2ncc(Cl)cn2)ncn1', 0),
  ('CC(F)(F)c1cc(-c2ccccc2Oc2ncc(Br)cn2)no1', 0);

Shifting focus to the molecule that follows.
Give the value of Corn plant response rating reported for the following: "Cn1nnc(-c2ccccc2Oc2ncc(Br)cn2)n1"
0

###

- Tested on: wheat (Triticum aestivum)
- test protocol: Test B pre-/postemergence plant response
- Assay type: in vivo
- measurement parameters: 125 g ai/ha, postemergence; 0 to 100 scale, 0 no effect, 100 complete control
recorded endpoint: Plant response rating, Wheat
// no unit, no text: just the number

Solved cases (8 shown):
INSERT INTO results (molecular_string, study_system, data_value) VALUES
  ('CCn1nc(C(F)(F)F)cc1-c1c(C#N)cccc1Oc1ncc(Cl)cn1', 'wheat (Triticum aestivum)', 0),
  ('Cn1nnc(-c2ccccc2Oc2ncc(Br)cn2)n1', 'wheat (Triticum aestivum)', 0),
  ('Fc1cccc(Oc2ncc(Cl)cn2)c1-c1cnccn1', 'wheat (Triticum aestivum)', 0),
  ('CC(C)(C)c1cc(-c2ccccc2Oc2ncc(Cl)cn2)no1', 'wheat (Triticum aestivum)', 0),
  ('FC(F)Oc1cccc(Oc2ncc(Cl)cn2)c1-c1cc(C(F)F)no1', 'wheat (Triticum aestivum)', 10),
  ('Clc1cnc(Oc2ccccc2-c2cc(C3CC3)on2)nc1', 'wheat (Triticum aestivum)', 10),
  ('CCOC(=O)c1cc(-c2ccccc2Oc2ncc(Cl)cn2)on1', 'wheat (Triticum aestivum)', 0),
  ('FC(F)(F)c1ccnc(-c2ccccc2Oc2ncc(Br)cn2)c1', 'wheat (Triticum aestivum)', 0);

Now, please, on to the next compound.
Fill: Plant response rating, Wheat (wheat (Triticum aestivum)) for this compound "Clc1ccc(-c2c(I)cccc2Oc2ncc(Cl)cn2)nc1"
0
